Assay: Molecularly Imprinted Sorbent Assay (MIA), competitive binding of 3H-theophylline to anti-theophylline polymer
Conditions: molar ratio of theophylline to ligand giving 50% inhibition of 3H-theophylline binding to polymer; ligands added to drug free serum
observable: Cross-reaction (%) ArtAb, Theophylline antibodies
Respond numerically; units are % and should not be typed.

Please list Cross-reaction (%) ArtAb, Theophylline antibodies recorded for the compound Cn1c(=O)[nH]c(=O)c2[nH]cnc21 [3-Methylxantin, 3-methylxanthine]
7

Supply measured Cross-reaction (%) ArtAb, Theophylline antibodies of `Cn1c(=O)c2[nH]cnc2n(C)c1=O` in your reply.
100

====

Task for the reader: assign each of the following compounds its reported Cross-reaction (%) ArtAb, Diazepam antibodies.
Assay: Molecularly Imprinted Sorbent Assay (MIA), competitive binding of 3H-diazepam to anti-diazepam polymer
Conditions: molar ratio of diazepam to ligand giving 50% inhibition of 3H-diazepam binding to polymer; ligands added to drug free serum
Express it in %; write the number only.

Provide one value: measured Cross-reaction (%) ArtAb, Diazepam antibodies of `Cc1nnc2n1-c1ccc(Cl)cc1C(c1ccccc1)=NC2`
40

Check the records and state Cross-reaction (%) ArtAb, Diazepam antibodies for `CNC1=Nc2ccc(Cl)cc2C(c2ccccc2)=[N+]([O-])C1`
2

Provide Cross-reaction (%) ArtAb, Diazepam antibodies value for the following compound: `O=C1CN=C(c2ccccc2Cl)c2cc([N+](=O)[O-])ccc2N1`
9

Retrieve Cross-reaction (%) ArtAb, Diazepam antibodies measured for `O=C1CN=C(c2ccccc2)c2cc(Cl)ccc2N1` and print it.
27

Give the value of Cross-reaction (%) ArtAb, Diazepam antibodies reported for the following: `CN1C(=O)CN=C(c2ccccc2)c2cc(Cl)ccc21`
100

Using the record for O=C1Nc2ccc(Cl)cc2C(c2ccccc2Cl)=NC1O (stereo not drawn) , state its measured Cross-reaction (%) ArtAb, Diazepam antibodies.
4

====

Assay: Molecularly Imprinted Sorbent Assay (MIA), competitive binding of 3H-theophylline to anti-theophylline polymer
Conditions: molar ratio of theophylline to ligand giving 50% inhibition of 3H-theophylline binding to polymer; ligands added to drug free serum
observable: Cross-reaction (%) ArtAb, Theophylline antibodies

Please give the documented Cross-reaction (%) ArtAb, Theophylline antibodies of `O=c1[nH]c(=O)c2[nH]c(=O)[nH]c2[nH]1`
<1%

Identify measured Cross-reaction (%) ArtAb, Theophylline antibodies corresponding to Cn1c(=O)c2c(ncn2CCO)n(C)c1=O [7-(β-Hydroxyethyl)-1,3-di-methylxanthine]
<1%

Using the record for `O=c1[nH]c(=O)c2[nH]cnc2[nH]1` , state its measured Cross-reaction (%) ArtAb, Theophylline antibodies.
<1%

====

Test: Scatchard plot analysis with radio-labelled ligand, anti-theophylline polymer
Format: binding
Conditions: LIGAND programme, read-out: KD, low affinity binding sites
observable: pKd
Entry type: numeric. Quantity: pKd, the -log10 of concentration in molar units.

Using known records, supply pKd for Cn1c(=O)c2[nH]cnc2n(C)c1=O [Theophylline, 1,3-dimethylxanthine]
4.18

====

Experiment: Scatchard plot analysis with radio-labelled ligand, anti-diazepam polymer
Details: read-out: KD, low affinity binding sites, LIGAND programme
observable: Kd
Answer as a quantity: numeral, then unit.

Supply recorded Kd for CN1C(=O)CN=C(c2ccccc2)c2cc(Cl)ccc21 [Diazepam] here.
0.0736 µM

====

Assay: Scatchard plot analysis with radio-labelled ligand, anti-theophylline polymer
Format: binding
Conditions: LIGAND programme, read-out: KD, high affinity binding sites
observable: pKd
Interpret pKd as the negative base-10 log of the concentration measured in mol/L.

Answer with the recorded pKd of `Cn1c(=O)c2[nH]cnc2n(C)c1=O` only.
6.46
